Molecular target: human ether-à-go-go-related gene (hERG) potassium channel (human);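 note: peak tail current of the secondary pulse compared with the same well before compound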
Assay: primary screen, population patch clamp on CHO cells stably expressing hERG; higher = less effect of the substance
About 14,000 (4.5%) of roughly 310,000 compounds showed an effect of 50% or more. The effect is printed as a negative number. Shown is part of a subset that was picked to be rich in strong results.
In this section, each of the compounds is paired with its reported hERG current change (%, negative = inhibition) at 10uM.
assayEndpoint: hERG current change (%, negative = inhibition) at 10uM

{"columns": ["compound", "observedResult"],
 "data": [
  ["COc1ccc(Cc2noc(CN3CCCN(Cc4ccc(F)cc4)CC3)n2)cc1OC", "-60.8%"],
  ["COc1ccc(CN(CCC(c2ccc(F)cc2)C2CCOC(C)(C)C2)C(=O)c2ccco2)cc1 (centres unmarked)", "-52.1%"],
  ["COc1ccc(Cc2noc(CN(C)CC3CCN(Cc4ccccc4)CC3)n2)cc1OC", "-22.9%"],
  ["COc1cc2nc(Nc3cccc(F)c3)nc(N)c2cc1OC.Cl", "-17.7%"],
  ["FC(F)(F)c1cccc(N2Cc3ccccc3C2)c1", "6.28%"],
  ["O=C(CN(Cc1ccccc1)C(=O)c1ccco1)NCc1ccc(F)cc1", "-31.6%"],
  ["Br.c1ccc(-c2cc3n(c2)CCc2ccccc2-3)cc1", "4.17%"],
  ["O=[N+]([O-])c1cccc(S(=O)(=O)N/N=C/c2ccc(O)cc2)c1", "1.14%"],
  ["CCOC(=O)C1=CCN(Cc2ccccc2)CC1.Cl", "12.8%"],
  ["COc1ccc(Cc2noc(CN3CCN(Cc4csc(C)n4)CC3)n2)cc1OC", "18.2%"],
  ["COc1ccc(Cc2noc(CN3CCN(C4CCc5ccccc5C4)CC3)n2)cc1OC (centres unmarked)", "-68.8%"],
  ["COc1cccc(CN(CC(=O)NCc2ccc(F)cc2)C(=O)c2ccco2)c1", "-39.2%"],
  ["COc1ccc(C(=O)NC(=S)Nc2cccc3nc(C)ccc23)cc1OC", "8.45%"],
  ["COc1ccc(CCNc2ccc(C(CC(N)=O)NC(=O)Cc3ccc(Br)cc3)cc2[N+](=O)[O-])cc1 (centres unmarked)", "4.07%"],
  ["COc1ccc(CCN(C)CC(O)COc2c(C)ccc(C)c2C)cc1OC (centres unmarked)", "-76%"],
  ["COc1ccc(CCN(C)CC(O)COc2ccc(C(C)=O)cc2OC)cc1OC (centres unmarked)", "-21.6%"],
  ["COc1cc(OC)c(NC(=O)CCNC(=O)Cn2ccc3ccccc3c2=O)cc1Cl", "7.45%"],
  ["CC1(C)CC(C(CC(=O)O)c2ccccc2)CCO1 (centres unmarked)", "28.9%"],
  ["COCCN1CCN(Cc2nc(Cc3ccc(OC)c(OC)c3)no2)CC1", "3.84%"],
  ["COc1ccc(Cc2noc(CN3CCNC(=O)CC3)n2)cc1OC", "6.36%"]
]}

###

Biological target: human ether-à-go-go-related gene (hERG) potassium channel (human, UniProt Q12809);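 note: peak tail current of the secondary pulse compared with the same well before compound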
Sequence (Q12809 whole entry, looked up): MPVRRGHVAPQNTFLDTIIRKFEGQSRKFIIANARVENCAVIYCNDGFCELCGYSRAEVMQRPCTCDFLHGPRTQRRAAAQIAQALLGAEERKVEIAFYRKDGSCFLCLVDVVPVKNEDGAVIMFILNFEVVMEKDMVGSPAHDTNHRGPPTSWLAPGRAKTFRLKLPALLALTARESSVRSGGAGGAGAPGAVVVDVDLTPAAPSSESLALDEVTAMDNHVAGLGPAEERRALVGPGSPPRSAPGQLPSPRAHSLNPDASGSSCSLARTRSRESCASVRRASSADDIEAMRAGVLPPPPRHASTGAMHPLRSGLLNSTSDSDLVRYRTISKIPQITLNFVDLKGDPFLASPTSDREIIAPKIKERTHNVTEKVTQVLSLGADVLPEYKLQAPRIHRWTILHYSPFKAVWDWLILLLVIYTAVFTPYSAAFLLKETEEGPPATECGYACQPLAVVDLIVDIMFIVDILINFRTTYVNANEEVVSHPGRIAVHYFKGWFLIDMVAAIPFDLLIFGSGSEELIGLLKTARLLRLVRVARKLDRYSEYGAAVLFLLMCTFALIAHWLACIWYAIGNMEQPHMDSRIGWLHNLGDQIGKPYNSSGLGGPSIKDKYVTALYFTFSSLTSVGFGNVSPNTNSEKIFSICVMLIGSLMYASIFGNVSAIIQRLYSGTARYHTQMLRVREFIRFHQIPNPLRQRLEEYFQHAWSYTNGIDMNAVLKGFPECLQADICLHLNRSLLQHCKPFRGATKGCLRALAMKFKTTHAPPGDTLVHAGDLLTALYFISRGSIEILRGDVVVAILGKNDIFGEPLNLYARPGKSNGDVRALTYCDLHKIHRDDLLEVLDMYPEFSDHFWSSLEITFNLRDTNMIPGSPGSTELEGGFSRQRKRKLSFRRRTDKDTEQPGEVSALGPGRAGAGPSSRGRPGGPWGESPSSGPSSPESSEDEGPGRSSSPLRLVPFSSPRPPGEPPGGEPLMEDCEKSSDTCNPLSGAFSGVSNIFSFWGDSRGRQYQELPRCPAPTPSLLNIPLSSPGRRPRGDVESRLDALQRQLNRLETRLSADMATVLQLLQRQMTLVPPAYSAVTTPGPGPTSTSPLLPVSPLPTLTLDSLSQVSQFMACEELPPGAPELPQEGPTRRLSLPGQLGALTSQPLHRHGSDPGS
Test: primary screen, population patch clamp on CHO cells stably expressing hERG; higher = less effect of the substance
Method: Briefly, Chinese hamster ovary (CHO) cells stably expressing the hERG channel were dislodged from tissue culture flasks and dispensed into PPC plates. […] During the recording, background leak currents were estimated by a 100 ms step to -80 mV from an initial holding potential of -70 mV and subtracted from the subsequent current measurement. The campaign was conducted in two phases using slight differences in recording protocol. […]
Out of some 310,000 compounds screened, about 14,000 (4.5%) showed an effect of 50% or more. Effects have a minus sign here. The entries come from a sample that favours strong results as a whole.
assayEndpoint: hERG current change (%, negative = inhibition) at 10uM (%)

{"columns": ["lineNotation", "observedResult"],
 "data": [
  ["O=C1CCCc2c1cc(C(=O)NCCCN1CCOCC1)c(=O)n2-c1ccc(Cl)cc1", 1.59],
  ["O=C1CCCc2c1cc(C(=O)O)c(=O)n2-c1ccccc1", 13.9],
  ["Cc1ccc(-n2c3c(cc(C(=O)NCc4ccco4)c2=O)C(=O)CC(C)(C)C3)cc1", -6.38],
  ["O=C1CCCc2c1cc(C(=O)NCc1ccco1)c(=O)n2-c1ccccc1", -10.3],
  ["Cc1ccc(-n2c3c(cc(C(=O)NCc4ccco4)c2=O)C(=O)CCC3)cc1", -53.8],
  ["COC(=O)Nc1ccc2c(c1)N(C(=O)CCN1CCOCC1)c1ccccc1S2.Cl", 2.68],
  ["Cc1cc(C)nc(NC(=O)CSc2ccccn2)n1", 1.08],
  ["CC1(C)CC(=O)c2cc(C(=O)NCc3ccco3)c(=O)n(-c3ccc(Cl)cc3)c2C1", -22.2],
  ["Cc1ccc(-n2c3c(cc(C(=O)NCC(=O)c4ccccc4)c2=O)C(=O)CCC3)cc1", 10.2]
]}

###

Molecular target: human ether-à-go-go-related gene (hERG) potassium channel (human, UniProt Q12809);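 note: peak tail current of the secondary pulse compared with the same well before compound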
Test: primary screen, population patch clamp on CHO cells stably expressing hERG; higher = less effect of the substance
Screen size: about 310,000 compounds; about 14,000 (4.5%) showed an effect of 50% or more. Effects have a minus sign here. What follows is part of a selection rich in strong results, with near analogues and random picks from the rest.
In this section, each of the molecules is paired with its reported hERG current change (%, negative = inhibition) at 10uM.
assayEndpoint: hERG current change (%, negative = inhibition) at 10uM (%)

{"columns": ["molecule", "observedResult"],
 "data": [
  ["O=C(NN1C(=O)c2ccccc2NC1c1ccc([N+](=O)[O-])o1)c1ccc(Br)cc1 (stereo not shown)", -72.7],
  ["O=C(NN1C(=O)c2ccccc2NC1c1ccc([N+](=O)[O-])o1)c1ccc([N+](=O)[O-])cc1 (stereo not shown)", -65.5],
  ["CC(=O)NN1C(=O)c2ccccc2NC1c1ccc([N+](=O)[O-])o1 (stereo not shown)", 8.22],
  ["Cc1ccc(-c2nnc(CSc3nnc(COc4ccccc4)n3-c3ccc(C)cc3)o2)cc1", -7.47]
]}

###

Molecular target: human ether-à-go-go-related gene (hERG) potassium channel (human);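 note: peak tail current of the secondary pulse compared with the same well before compound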
Assay: primary screen, population patch clamp on CHO cells stably expressing hERG; higher = less effect of the substance
Out of some 310,000 compounds screened, about 14,000 (4.5%) showed an effect of 50% or more. Effects have a minus sign here. For the sample, strong results were picked, then their nearest neighbours and some compounds at random.
In this section, each of the compounds is paired with its reported hERG current change (%, negative = inhibition) at 10uM.
assayEndpoint: hERG current change (%, negative = inhibition) at 10uM (%)

{"columns": ["lineNotation", "valueUnits", "observedResult"],
 "data": [
  ["Brc1ccc(-c2csc3[n+]2CCCCC3)cc1.[Br-]", "%", -6.25],
  ["Cc1cccc(NC(=O)CNC(=O)Cc2ccc(S(=O)(=O)N3CCOCC3)s2)c1C", "%", 5.91],
  ["Clc1ccc(-n2cc(-c3ccc(Br)cc3)[n+]3c2CCCCC3)cc1.[Br-]", "%", -49.4],
  ["FC(F)Oc1ccc(-n2cc(-c3ccc(Cl)cc3)[n+]3c2CCCCC3)cc1.[Br-]", "%", -78.3],
  ["FC(F)Oc1ccc(-n2cc(-c3ccccc3)[n+]3c2CCCCC3)cc1.[Br-]", "%", -55.6],
  ["COc1ccc(-n2cc(-c3ccc(OC(F)F)cc3)[n+]3c2CCCCC3)cc1.[Br-]", "%", -76.3],
  ["Br.FC(F)Oc1ccc(-c2csc(NNC3=NCCCCC3)n2)cc1", "%", -47.5],
  ["Cc1ccc2nc(N3CCN(c4ccccc4F)CC3)c(C=O)c(=O)n2c1", "%", -70.1],
  ["O=C(Nc1ccc(Cl)cc1)N(C1=NCCC1)c1ccc(OC(F)F)cc1", "%", -8.02],
  ["Cc1cc2nc(C)n(CCCNC(=O)Nc3ccc(F)cc3)c2cc1C", "%", -49.9],
  ["C=CCN1C(=O)CSc2ccc(C(=O)NCc3ccc(F)cc3)cc21", "%", -21.3],
  ["Clc1ccc(-c2cn(-c3ccc(Cl)cc3)c3[n+]2CCCCC3)cc1.[Br-]", "%", -52.7],
  ["CN(C)CCOc1cc(Cl)cc(Cl)c1", "%", 7.27],
  ["Cc1cccc(C)c1-n1c(C)cc(/C=N/NC(=O)c2ccncc2)c1C", "%", -12],
  ["Cc1ccc(C)c(OCCC(=O)NCCc2ccc(Cl)cc2)c1", "%", 21.6],
  ["Cc1cccn2c(=O)c(C=O)c(N3CCN(c4ccc(F)cc4)CC3)nc12", "%", -22.1],
  ["COc1ccc(-n2cc(-c3ccccc3)[n+]3c2CCCCC3)cc1.[Br-]", "%", -19.3],
  ["Cc1cccn2c(=O)c(C=O)c(N3CCN(C)CC3)nc12", "%", -0.442],
  ["CC(C)Cc1nc(N2CCN(C(=O)c3ccccc3)CC2)c(C#N)c2c1CCC2", "%", -24.1],
  ["Cc1cc2nc(C)n(CCCNC(=O)Nc3ccc(C#N)cc3)c2cc1C", "%", -34]
]}

Where these numbers come from: paper PMC4336329
